ASSAY METRIC: melting point

{"columns": ["MOLECULE", "melting point"],
 "data": [
  ["Cc1ccc(-c2cc(C(=O)Nc3ccc(-c4cn5ccnc5c(N5CCOCC5)n4)cc3)ncn2)cc1 [14b]", "222 to 225 °C"]
]}

I'd like to know its melting point. The molecule in question is COc1ccc(-c2ccc(C(=O)Nc3ccc(-c4cn5ccnc5c(N5CCOCC5)n4)cc3)nc2)cc1 [12e]
255 to 257 °C

Please answer likewise for O=C(Nc1ccc(-c2cn3ccnc3c(N3CCOCC3)n2)cc1)c1cc(-c2ccc(C(F)(F)F)cc2)ccn1 [13d]
269 to 272 °C

Please answer likewise for O=C(Nc1ccc(-c2cn3ccnc3c(N3CCOCC3)n2)cc1)c1cc(-c2ccc(Br)cc2)ncn1 [14d]
221 to 223 °C

Please answer likewise for O=C(Nc1ccc(-c2cn3ccnc3c(N3CCOCC3)n2)cc1)c1cc(-c2ccccc2)ccn1 [13a]
261 to 262 °C

Please answer likewise for COc1ccc(-c2ccnc(C(=O)Nc3ccc(-c4cn5ccnc5c(N5CCOCC5)n4)cc3)c2)cc1 [13e]
257 to 260 °C

Please answer likewise for O=C(Nc1ccc(-c2cn3ccnc3c(N3CCOCC3)n2)cc1)c1ccc(-c2ccc(C(F)(F)F)cc2)cn1 [12d]
233 to 235 °C

Please answer likewise for O=C(Nc1ccc(-c2cn3ccnc3c(N3CCOCC3)n2)cc1)c1ccc(-c2ccc(F)cc2F)cn1 [12c]
255 to 257 °C

Please answer likewise for Cc1ccc(-c2ccnc(C(=O)Nc3ccc(-c4cn5ccnc5c(N5CCOCC5)n4)cc3)c2)cc1 [13g]
271 to 273 °C
